Source: ChEMBL document CHEMBL1145033

Target: Adenosine receptor A1 (Homo sapiens)
Assay: Dissociation of [3H]N6-cyclohexyladenosine ([3H]CHA) from CHO-K1 membrane expressing human adenosine A1 receptor after treatment with allosteric enhancer at 100 uM and (R)-PIA
The entries below come with measured Activity values attached.
Reported property: Activity (%)

INSERT INTO measurements (smiles_record, tested_on, measured) VALUES
  ('Nc1sc(-c2ccccc2)c(-c2ccc(Cl)cc2)c1C(=O)c1ccc(-c2ccccc2)cc1', 'Adenosine receptor A1 (Homo sapiens)', 10.5),
  ('Nc1sc(-c2ccccc2)c(-c2ccccc2)c1C(=O)c1ccc(Cl)cc1', 'Adenosine receptor A1 (Homo sapiens)', 10.8),
  ('Nc1sc(Br)c(-c2cccc([N+](=O)[O-])c2)c1C(=O)c1ccccc1', 'Adenosine receptor A1 (Homo sapiens)', 21.8),
  ('Cc1ccc(-c2c(-c3ccccc3)sc(N)c2C(=O)c2ccc3ccccc3c2)cc1', 'Adenosine receptor A1 (Homo sapiens)', 10.9),
  ('Cc1ccc(-c2c(-c3ccccc3)sc(N)c2C(=O)c2ccccc2)cc1', 'Adenosine receptor A1 (Homo sapiens)', 13.4),
  ('Nc1sc(Br)c(-c2ccc3ccccc3c2)c1C(=O)c1ccccc1', 'Adenosine receptor A1 (Homo sapiens)', 49.7),
  ('Nc1sc(-c2ccccc2)c(-c2ccc(Cl)cc2)c1C(=O)c1ccc(Cl)cc1', 'Adenosine receptor A1 (Homo sapiens)', 8.7),
  ('Nc1sc(-c2ccccc2)c(-c2ccccc2)c1C(=O)c1cccc2ccccc12', 'Adenosine receptor A1 (Homo sapiens)', 52.3),
  ('CCOC(=O)c1c(N)sc(-c2ccccc2)c1-c1ccc(Cl)cc1', 'Adenosine receptor A1 (Homo sapiens)', 42.1),
  ('Nc1sc(-c2ccccc2)c(-c2ccccc2)c1C(=O)c1ccc2ccccc2c1', 'Adenosine receptor A1 (Homo sapiens)', 4.2);

* * *

Target: Adenosine receptor A1 (Homo sapiens) (UniProt P30542)
Sequence (whole entry): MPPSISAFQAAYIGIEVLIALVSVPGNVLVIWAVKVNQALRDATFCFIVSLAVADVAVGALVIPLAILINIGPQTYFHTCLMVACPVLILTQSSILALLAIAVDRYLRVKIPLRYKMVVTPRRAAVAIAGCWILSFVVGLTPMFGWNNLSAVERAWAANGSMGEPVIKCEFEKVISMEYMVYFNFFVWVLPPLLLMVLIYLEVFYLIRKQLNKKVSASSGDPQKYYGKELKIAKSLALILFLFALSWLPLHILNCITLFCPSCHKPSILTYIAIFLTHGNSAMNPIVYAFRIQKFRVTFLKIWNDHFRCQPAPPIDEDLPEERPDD
Experiment: Dissociation of [3H]N6-cyclohexyladenosine ([3H]CHA) from CHO-K1 membrane expressing human adenosine A1 receptor after treatment with allosteric enhancer at 100 uM and (R)-PIA
Activity below 8% gives NOT MET; Activity at or above it gives MET.

INSERT INTO measurements (smiles_record, label) VALUES
  ('Nc1sc(Br)c(-c2ccc(-c3ccccc3)cc2)c1C(=O)c1ccccc1', 'MET'),
  ('Nc1sc(-c2ccccc2)c(-c2ccccc2)c1C(=O)c1ccccc1', 'MET'),
  ('Nc1sc(-c2ccccc2)c(-c2ccc(Cl)cc2)c1C(=O)c1ccccc1', 'NOT MET'),
  ('Nc1sc(Br)c(-c2cccc(C(F)(F)F)c2)c1C(=O)c1ccccc1', 'MET'),
  ('Cc1ccc(-c2c(-c3ccccc3)sc(N)c2C(=O)OCc2cccc(C(F)(F)F)c2)cc1', 'MET'),
  ('Nc1sc(-c2ccccc2)c(-c2ccccc2)c1C(=O)c1cccc(Cl)c1', 'MET'),
  ('Cc1ccc(-c2c(-c3ccccc3)sc(N)c2C(=O)Cc2ccccc2)cc1', 'NOT MET'),
  ('Nc1sc(Br)c(-c2ccc(C(F)(F)F)cc2)c1C(=O)c1ccccc1', 'MET'),
  ('Nc1sc(-c2ccccc2)c(-c2ccccc2)c1C(=O)c1ccc(-c2ccccc2)cc1', 'NOT MET'),
  ('Nc1sc(-c2ccccc2)c(-c2ccccc2)c1C(=O)OCc1cccc(C(F)(F)F)c1', 'MET'),
  ('Cc1sc(N)c(C(=O)c2cccc(C(F)(F)F)c2)c1C', 'MET'),
  ('Cc1ccc(-c2c(-c3ccccc3)sc(N)c2C(=O)c2ccc(Cl)cc2)cc1', 'MET'),
  ('N#Cc1ccc(-c2c(Br)sc(N)c2C(=O)c2ccccc2)cc1', 'MET'),
  ('Nc1sc(-c2ccccc2)c(-c2ccccc2)c1C(=O)N(Cc1ccccc1)Cc1ccccc1', 'MET');

* * *

Molecular target: Adenosine receptor A1 (Homo sapiens) (UniProt P30542)
Sequence (whole entry): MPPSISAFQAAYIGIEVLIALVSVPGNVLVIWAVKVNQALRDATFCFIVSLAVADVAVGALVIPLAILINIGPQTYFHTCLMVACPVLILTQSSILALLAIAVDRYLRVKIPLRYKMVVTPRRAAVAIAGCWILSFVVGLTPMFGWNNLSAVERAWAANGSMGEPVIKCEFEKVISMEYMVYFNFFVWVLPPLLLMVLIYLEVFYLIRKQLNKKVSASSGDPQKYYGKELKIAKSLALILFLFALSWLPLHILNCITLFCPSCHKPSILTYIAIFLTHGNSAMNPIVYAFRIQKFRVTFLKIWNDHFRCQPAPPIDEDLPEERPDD
Experiment: Dissociation of [3H]N6-cyclohexyladenosine ([3H]CHA) from CHO-K1 membrane expressing human adenosine A1 receptor after treatment with allosteric enhancer at 100 uM and (R)-PIA
The entries below come with measured Activity values attached.
Reported property: Activity (%)

INSERT INTO results (smiles_record, measured) VALUES
  ('Nc1sc(-c2ccccc2)c(-c2ccc(Cl)cc2)c1C(=O)c1cccc2ccccc12', 11.9),
  ('Nc1sc(Br)c(-c2ccc([N+](=O)[O-])cc2)c1C(=O)c1ccccc1', 68.3),
  ('Cc1ccc(-c2c(-c3ccccc3)sc(N)c2C(=O)c2ccc(-c3ccccc3)cc2)cc1', 3.6),
  ('CCOC(=O)c1c(N)sc(Br)c1-c1cccc([N+](=O)[O-])c1', 26),
  ('Nc1sc(-c2ccccc2)c(-c2ccccc2)c1C(=O)OCc1ccccc1', 18.6);

* * *

Target: Adenosine receptor A1 (Homo sapiens, UniProt P30542)
Assay: Effective dose as dissociation of [3H]N6-cyclohexyladenosine ([3H]CHA) from CHO-K1 membrane after treatment with allosteric enhancer and (R)-PIA
Reported property: EC50 (µM)

INSERT INTO measurements (smiles_record, reported_property, measured) VALUES
  ('Nc1sc(Br)c(-c2cccc(C(F)(F)F)c2)c1C(=O)c1ccccc1', 'EC50', 6.36);
